Cited source: ChEMBL document CHEMBL1122462

# Test system: Rattus norvegicus
# Measurement Notes: In vivo Triglyceride lowering activity at dose as 0.01 % of the diet
# Assay type: functional
Some compounds, each annotated with its measured serum triglyceride level (% of control).

These solved cases illustrate the format of a correct answer.
Which serum triglyceride level (% of control) value belongs to O=C(O)c1ccc(NCCCCCCCCCCCNc2ccc(C(=O)O)cc2)cc1 ?
<68%

Which serum triglyceride level (% of control) value belongs to CC(C)(C)CCCCCCCCCCCCCCNc1ccc(C(=O)[O-])cc1.[Na+] ?
<66%

Which serum triglyceride level (% of control) value belongs to O=C(O)c1ccc(NCCCCCCCCCCCCCCCC(F)(F)F)cc1 ?
<46%

Which serum triglyceride level (% of control) value belongs to CCOC(=O)c1ccc(NCCCCCCCCCCC(F)(F)F)cc1 ?
<74%

Which serum triglyceride level (% of control) value belongs to CCOC(=O)c1ccc(NC(=O)C(F)(F)C(F)(F)C(F)(F)C(F)(F)C(F)(F)C(F)(F)C(F)(F)F)cc1 ?
<61%

Which serum triglyceride level (% of control) value belongs to CCOC(=O)c1ccc(NCCCCCCCCCCCCCCC(C)C)cc1 ?
<66%

Which serum triglyceride level (% of control) value belongs to O=C([O-])c1ccc(NCCCCCCCCCCCCCCCC(F)(F)F)cc1.[Na+] ?
<63%

Which serum triglyceride level (% of control) value belongs to O=C(O)c1ccc(NCCCCCCCCCCC(F)(F)F)cc1 ?
<57%

More entries:
Which serum triglyceride level (% of control) value belongs to CCCCCCCCCCCCCCCCNc1ccc(C(=O)O)cc1 [CETABEN] ?
<71%

Which serum triglyceride level (% of control) value belongs to CCCCCCCCCCC(O)CCCCCNc1ccc(C(=O)O)cc1 (stereo unspecified) ?
<66%

Which serum triglyceride level (% of control) value belongs to O=C(O)c1ccc(NCCCCCCCCCCCS)cc1 ?
<65%

Which serum triglyceride level (% of control) value belongs to CCCCCCCCCC/C(CCCCCNc1ccc(C(=O)O)cc1)=N/O ?
<52%

Which serum triglyceride level (% of control) value belongs to CCOC(=O)c1ccc(NCCC[Si](C)(C)C)cc1 ?
<60%

Which serum triglyceride level (% of control) value belongs to C[Si](C)(C)CCCCCCCCCCCCCCNc1ccc(C(=O)O)cc1 ?
<59%

Which serum triglyceride level (% of control) value belongs to CC(C)(C)CCCCCCCCCCCCCCNc1ccc(C(=O)O)cc1 ?
<59%

Which serum triglyceride level (% of control) value belongs to CCCCCCCCCCC(C#N)CCCCCNc1ccc(C(=O)OCC)cc1 (stereo unspecified) ?
<66%

###

Some compounds, each annotated with its measured serum triglyceride level (% of control).
# System: Rattus norvegicus
# Measurement Notes: In vivo Triglyceride lowering activity at dose as 0.01 % of the diet
# Type: functional

Which serum triglyceride level (% of control) value belongs to CCCCCCCCCCC(C)Nc1ccc(C(=O)O)cc1 (stereo unspecified) ?
<42%

Which serum triglyceride level (% of control) value belongs to C[Si](C)(C)CCCNc1ccc(C(=O)O)cc1 ?
<69%

Which serum triglyceride level (% of control) value belongs to CCCCCCCCCCC(=O)CCCCCNc1ccc(C(=O)O)cc1 ?
<63%

Which serum triglyceride level (% of control) value belongs to C[Si](C)(C)CCCCCCCCCCCNc1ccc(C(=O)O)cc1 ?
<67%

Which serum triglyceride level (% of control) value belongs to O=C(O)c1ccc(NCC(F)(F)C(F)(F)C(F)(F)C(F)(F)C(F)(F)C(F)(F)C(F)(F)F)cc1 ?
<51%

More entries:
Which serum triglyceride level (% of control) value belongs to CCCCCC(=O)CCCCCCCCCCNc1ccc(C(=O)OCC)cc1 ?
<64%

###

# Target Desc: Sterol O-acyltransferase 1 (Rattus norvegicus)
# Sequence (whole entry): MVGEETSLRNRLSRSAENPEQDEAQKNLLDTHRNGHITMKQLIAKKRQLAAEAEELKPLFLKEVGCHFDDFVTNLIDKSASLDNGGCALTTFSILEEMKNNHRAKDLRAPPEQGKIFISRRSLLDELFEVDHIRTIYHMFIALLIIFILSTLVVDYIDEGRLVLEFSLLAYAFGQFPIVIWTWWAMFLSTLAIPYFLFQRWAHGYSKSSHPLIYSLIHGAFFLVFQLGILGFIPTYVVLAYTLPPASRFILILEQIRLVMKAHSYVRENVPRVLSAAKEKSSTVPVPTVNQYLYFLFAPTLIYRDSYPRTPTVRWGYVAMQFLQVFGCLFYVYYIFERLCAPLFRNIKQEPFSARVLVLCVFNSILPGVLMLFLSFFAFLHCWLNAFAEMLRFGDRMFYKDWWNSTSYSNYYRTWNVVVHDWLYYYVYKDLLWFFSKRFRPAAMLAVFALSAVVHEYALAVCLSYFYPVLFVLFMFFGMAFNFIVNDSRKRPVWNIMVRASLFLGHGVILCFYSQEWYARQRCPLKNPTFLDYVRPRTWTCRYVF
# Measurement Notes: In vitro inhibitory activity against acyl coenzyme A:cholesterol acyltransferase
# Set-up: concentration or dose not given beside the values
# Measurement Conditions: concentration not given here
Reported Endpoint: inhibition

Provide the documented inhibition with Sterol O-acyltransferase 1 (Rattus norvegicus) as the system for CCOC(=O)c1ccc(N(CCCCCCCCCCCBr)C(=O)OCc2ccccc2)cc1
< 71%

###

# Target Desc: Sterol O-acyltransferase 1 (Rattus norvegicus)
# Measurement Notes: In vitro inhibitory activity against acyl coenzyme A:cholesterol acyltransferase
# Set-up: concentration or dose not given beside the values
# Measurement Conditions: concentration not given here
Some molecules, each annotated with its measured inhibition.

These solved cases illustrate the format of a correct answer.
Provide the documented inhibition with Sterol O-acyltransferase 1 (Rattus norvegicus) as the system for Br.CCOC(=O)c1ccc(NCCCCCCCCCCCSC(=N)N)cc1
< 73%

Provide the documented inhibition with Sterol O-acyltransferase 1 (Rattus norvegicus) as the system for O=C(O)c1ccc(NCCCCCCCCCCCSCc2ccccc2)cc1
< 54%

Field: next molecule
Provide the documented inhibition with Sterol O-acyltransferase 1 (Rattus norvegicus) as the system for CCOC(=O)c1ccc(NCCCCCCCCCCCNc2ccc(C(=O)OCC)cc2)cc1
< 68%
